- Assay text: Inhibition of human alpha thrombin
Quantity: Ki

CN(C)Cc1ccccc1-c1ccc(-c2ccc3c(C(N)=O)nn(-c4ccc5onc(N)c5c4)c3c2F)c(F)c1 ... 8.7 µM
Cc1nn(-c2cccc(CN)c2)c2cc(-c3ccc(N4CCCCC4=O)cc3)ccc12 ... > 15.2 µM

For each of the compounds below, state Ki.
1. CN(C)CCN(c1cccnc1)c1ccc(-c2ccc3c(C(N)=O)nn(-c4ccc5onc(N)c5c4)c3c2F)c(F)c1
2. CN(c1ccncc1)c1ccc(-c2ccc3c(C(N)=O)nn(-c4ccc5onc(N)c5c4)c3c2F)c(F)c1
3. CN(C)Cc1cnccc1-c1ccc(-c2ccc3c(C(N)=O)nn(-c4ccc5onc(N)c5c4)c3c2F)c(F)c1
4. Cc1nn(-c2cccc(CN)c2)c2cc(-c3ccc(N4CCCC4=O)cc3)ccc12
5. CN(C)Cc1cccnc1-c1ccc(-c2ccc3c(C(N)=O)nn(-c4ccc5onc(N)c5c4)c3c2F)c(F)c1
6. NC(=O)c1nn(-c2ccc3onc(N)c3c2)c2c(F)c(-c3ccc(N4CCCCC4=O)cc3F)ccc12

Result:
["> 15.2 µM", "2.46 µM", "9.62 µM", "> 15.2 µM", "> 15.2 µM", "5.49 µM"]

* * *

Exercise: for every item that follows, state its recorded Ki.
- Target under test: Trypsin (Homo sapiens, UniProt P07477+P07478+P35030)
- Assay text: Inhibition of human trypsin
- Assay type: protein assay

Previously resolved entries follow.
NC(=O)c1nn(-c2ccc3onc(N)c3c2)c2c(F)c(-c3ccc(N4CCCCC4=O)cc3F)ccc12 ... > 10 µM
CN(C)CCN(c1ccccc1)c1ccc(-c2ccc3c(C(N)=O)nn(-c4ccc5onc(N)c5c4)c3c2F)c(F)c1 ... > 10 µM
Nc1noc2ccc(-n3nc(C(F)(F)F)c4ccc(-c5ccc(N6CCCCC6=O)cc5F)c(F)c43)cc12 ... > 10 µM
CN(C)Cc1ncccc1-c1ccc(-c2ccc3c(C(N)=O)nn(-c4ccc5onc(N)c5c4)c3c2F)c(F)c1 ... > 10 µM

Take each entry in turn and give its Ki.
1. Cc1nn(-c2cccc(CN)c2)c2c(F)c(-c3ccc(N4CCCC4=O)cc3)ccc12
2. CN(C)Cc1nccn1-c1ccc(-c2ccc3c(C(N)=O)nn(-c4ccc5onc(N)c5c4)c3c2F)c(F)c1
3. CN(C)CCN(c1ccncc1)c1ccc(-c2ccc3c(C(N)=O)nn(-c4ccc5onc(N)c5c4)c3c2F)c(F)c1
4. CN(C)CCN(c1cccnc1)c1ccc(-c2ccc3c(C(N)=O)nn(-c4ccc5onc(N)c5c4)c3c2F)c(F)c1
5. Cc1nn(-c2cccc(CN)c2)c2c(F)c(-c3ccc(N4CCCCC4=O)cc3)ccc12
6. Cc1nn(-c2cccc(CN)c2)c2cc(-c3ccc(N4CCCCC4=O)cc3)ccc12
7. CN(c1ccncc1)c1ccc(-c2ccc3c(C(N)=O)nn(-c4ccc5onc(N)c5c4)c3c2F)c(F)c1

Result:
0.702 µM
> 10 µM
> 10 µM
> 10 µM
1.899 µM
> 10 µM
6.638 µM

Would you be so kind as to report Ki for each listed record?
1. CN(C)Cc1ccccc1-c1ccc(-c2ccc3c(C(N)=O)nn(-c4ccc5onc(N)c5c4)c3c2F)c(F)c1
2. CN(C)CCCN(c1ccncc1)c1ccc(-c2ccc3c(C(N)=O)nn(-c4ccc5onc(N)c5c4)c3c2F)c(F)c1
3. CN(C)Cc1cnccc1-c1ccc(-c2ccc3c(C(N)=O)nn(-c4ccc5onc(N)c5c4)c3c2F)c(F)c1
4. Cc1nn(-c2cccc(CN)c2)c2cc(-c3ccc(N4CCCC4=O)cc3)ccc12
5. CN(C)Cc1[nH]ncc1-c1ccc(-c2ccc3c(C(N)=O)nn(-c4ccc5onc(N)c5c4)c3c2F)c(F)c1
6. CN(C)Cc1cccnc1-c1ccc(-c2ccc3c(C(N)=O)nn(-c4ccc5onc(N)c5c4)c3c2F)c(F)c1
7. Cc1nn(-c2ccc3onc(N)c3c2)c2c(F)c(-c3ccc(N4CCCCC4=O)cc3F)ccc12

Result:
["> 10 µM", "> 10 µM", "> 10 µM", "> 10 µM", "> 10 µM", "> 10 µM", "> 10 µM"]

Task: Any idea what Ki was measured for "CN(C)Cc1ccncc1-c1ccc(-c2ccc3c(C(N)=O)nn(-c4ccc5onc(N)c5c4)c3c2F)c(F)c1" ?
Result: > 10 µM
